biological target: Rap guanine nucleotide exchange factor 4 (Homo sapiens) (UniProt Q8WZA2); test: Confirmatory qHTS for antagonist of cAMP-regulated guanine nucleotide exchange factor 4 (EPAC2) (AID 1645885); conditions: EPAC2 Rap1B-BODIPY-GDP exchange fluorescence, biochemical; series mostly up to 114 µM; note: potency is the fitted concentration of half-maximal effect; nearly all actives have a fitted effect of over 25% in size
Sequence (Q8WZA2 whole entry, looked up): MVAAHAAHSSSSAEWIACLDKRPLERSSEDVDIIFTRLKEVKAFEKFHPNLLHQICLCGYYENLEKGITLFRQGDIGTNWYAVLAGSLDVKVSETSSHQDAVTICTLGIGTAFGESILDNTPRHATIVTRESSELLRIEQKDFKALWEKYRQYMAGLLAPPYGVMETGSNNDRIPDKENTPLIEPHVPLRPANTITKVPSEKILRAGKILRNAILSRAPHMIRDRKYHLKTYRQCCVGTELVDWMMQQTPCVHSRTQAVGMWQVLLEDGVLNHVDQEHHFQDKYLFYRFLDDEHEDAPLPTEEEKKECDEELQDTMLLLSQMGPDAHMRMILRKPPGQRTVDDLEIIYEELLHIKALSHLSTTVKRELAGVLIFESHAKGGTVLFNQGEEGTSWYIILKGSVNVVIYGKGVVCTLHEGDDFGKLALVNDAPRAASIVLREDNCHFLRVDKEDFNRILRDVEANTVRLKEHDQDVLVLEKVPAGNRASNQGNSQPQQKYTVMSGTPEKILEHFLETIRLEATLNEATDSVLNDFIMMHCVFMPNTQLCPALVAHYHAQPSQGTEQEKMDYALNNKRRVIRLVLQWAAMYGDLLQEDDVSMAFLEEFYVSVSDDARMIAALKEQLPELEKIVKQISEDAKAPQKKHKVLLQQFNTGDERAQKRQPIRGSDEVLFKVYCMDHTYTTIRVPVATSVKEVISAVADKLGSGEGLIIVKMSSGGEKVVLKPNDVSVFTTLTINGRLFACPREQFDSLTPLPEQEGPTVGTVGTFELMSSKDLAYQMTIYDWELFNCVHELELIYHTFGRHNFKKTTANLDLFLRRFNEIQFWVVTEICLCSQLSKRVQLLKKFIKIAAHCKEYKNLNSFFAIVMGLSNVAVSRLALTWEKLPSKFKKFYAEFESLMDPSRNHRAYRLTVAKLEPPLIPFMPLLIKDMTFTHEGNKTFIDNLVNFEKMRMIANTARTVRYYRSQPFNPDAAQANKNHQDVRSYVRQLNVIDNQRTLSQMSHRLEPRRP
Inconclusive results are not listed. The source made the active and inactive calls. Calls come from the whole dose curve; as a rule, active = well fitted inhibition curve with a large enough effect; inconclusive = small, poorly fitted or top-dose-only effect; inactive = no such curve, though single readings can be large or run the other way.
Log the outcome using a class from active, inactive

Short answer needed: outcome of this test for COc1ccc(C(=O)N2CCC[C@@]3(CCN(Cc4cc(C(F)(F)F)cc(C(F)(F)F)c4)C3)C2)cc1 ? active

----------
molecular target: Muscarinic acetylcholine receptor M1 (Rattus norvegicus); assay: qHTS Assay for Antagonists of Acetylcholine Muscarinic M1 Receptor: Measurement of IP-One Response (AID 944); conditions: CHO-M1 cells, IP-One HTRF, antagonist mode; series mostly up to 46.1 µM; note: nearly all actives have a fitted effect of over 75% in size
Records with an inconclusive call do not appear. Activity calls are given as the source filed them. The call rests on the fitted dose curve; in most records, active means well fitted inhibition curve with a large enough effect; inconclusive means small, poorly fitted or top-dose-only effect; inactive means no such curve, though single readings can be large or run the other way.
Choose one outcome from this list and give only that: 1 = active, -1 = inactive

Before answering, review these 8 worked examples.
SMILES: C[C@@H](CCc1ccccc1)NC[C@H](O)c1ccc(O)c(C(N)=O)c1
TEST_SYSTEM: Muscarinic acetylcholine receptor M1 (Rattus norvegicus)
ANSWER_LABEL: -1
//
SMILES: CC(C)COC[C@H](CN(Cc1ccccc1)c1ccccc1)N1CCCC1
TEST_SYSTEM: Muscarinic acetylcholine receptor M1 (Rattus norvegicus)
ANSWER_LABEL: -1
//
SMILES: C[C@@H](C[N+](C)(C)C)OC(N)=O
TEST_SYSTEM: Muscarinic acetylcholine receptor M1 (Rattus norvegicus)
ANSWER_LABEL: -1
//
SMILES: CN1Cc2c(N)cccc2[C@H](c2ccccc2)C1
TEST_SYSTEM: Muscarinic acetylcholine receptor M1 (Rattus norvegicus)
ANSWER_LABEL: -1
//
SMILES: CCCCCN(CCCCC)C(=O)[C@H](CCC(=O)O)NC(=O)c1ccc(Cl)c(Cl)c1
TEST_SYSTEM: Muscarinic acetylcholine receptor M1 (Rattus norvegicus)
ANSWER_LABEL: -1
//
SMILES: CN1C(=O)CC[C@@H]1c1cccnc1
TEST_SYSTEM: Muscarinic acetylcholine receptor M1 (Rattus norvegicus)
ANSWER_LABEL: -1
//
SMILES: CC(=O)OCC1=C(C(=O)O)N2C(=O)[C@@H](NC(=O)CSc3ccncc3)[C@@H]2SC1
TEST_SYSTEM: Muscarinic acetylcholine receptor M1 (Rattus norvegicus)
ANSWER_LABEL: -1
//
SMILES: C[C@@H]1COc2c(N3CCN(C)CC3)c(F)cc3c(=O)c(C(=O)O)cn1c23
TEST_SYSTEM: Muscarinic acetylcholine receptor M1 (Rattus norvegicus)
ANSWER_LABEL: -1

Which result was noted for this compound in the test: O=C(O)[C@H]1CCCN(CCC=C(c2ccccc2)c2ccccc2)C1 -1

Can you look up the reported call for C[C@@H](CN(C)C)CN1c2ccccc2CCc2ccccc21 for me? 1

Name the outcome recorded for CCn1cc(C(=O)O)c(=O)c2cc(F)c(N3CCN[C@@H](C)C3)c(F)c21 in the assay. -1

----------
molecular target: Glucocorticoid receptor (Homo sapiens) (UniProt P04150); test: GR-GFP Redistribution (AID 450); settings: U2OS GR-GFP nuclear translocation, laser cytometry, 2 h; note: potency is the fitted concentration of half-maximal effect
Sequence (P04150 whole entry, looked up): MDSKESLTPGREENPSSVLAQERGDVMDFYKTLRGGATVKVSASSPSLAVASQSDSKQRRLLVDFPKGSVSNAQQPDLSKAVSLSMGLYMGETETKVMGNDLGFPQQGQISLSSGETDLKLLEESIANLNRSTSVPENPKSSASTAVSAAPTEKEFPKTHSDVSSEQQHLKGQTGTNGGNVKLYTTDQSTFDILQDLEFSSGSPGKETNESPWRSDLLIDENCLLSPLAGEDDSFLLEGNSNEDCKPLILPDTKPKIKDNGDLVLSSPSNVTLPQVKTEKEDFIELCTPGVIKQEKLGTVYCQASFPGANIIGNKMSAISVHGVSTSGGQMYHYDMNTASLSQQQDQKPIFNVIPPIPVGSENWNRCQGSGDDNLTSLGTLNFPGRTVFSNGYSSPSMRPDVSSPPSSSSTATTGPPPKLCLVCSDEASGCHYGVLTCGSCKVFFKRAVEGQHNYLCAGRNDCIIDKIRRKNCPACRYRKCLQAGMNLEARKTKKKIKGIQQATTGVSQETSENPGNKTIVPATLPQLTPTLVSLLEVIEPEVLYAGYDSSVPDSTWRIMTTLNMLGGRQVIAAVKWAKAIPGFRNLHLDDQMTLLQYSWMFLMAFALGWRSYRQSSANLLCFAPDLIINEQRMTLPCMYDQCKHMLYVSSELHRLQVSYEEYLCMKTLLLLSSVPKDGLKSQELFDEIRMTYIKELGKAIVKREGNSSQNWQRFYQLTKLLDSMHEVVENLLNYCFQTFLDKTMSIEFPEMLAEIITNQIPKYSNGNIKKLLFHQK
Calls of active or inactive are those of the source.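 Rule for the calls: active = compounds whose dose series gives a full or clear partial fitted curve of increased nuclear translocation; inconclusive = weak partial curve or effect only at the top dose; inactive = no dose-dependent translocation response.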
ASSAY_READOUT: Potency

These solved cases illustrate the format of a correct answer.
SMILES: COc1cccc(Cn2c(=O)c(-c3cccs3)nc3cnc(N4CCOCC4)nc32)c1
TEST_SYSTEM: Glucocorticoid receptor (Homo sapiens) (UniProt P04150)
REPORTED: > 9.22 µM (inactive)

SMILES: CN1CCN(c2ncc3nc(-c4ccc(Cl)cc4)c(=O)n(C)c3n2)CC1
TEST_SYSTEM: Glucocorticoid receptor (Homo sapiens) (UniProt P04150)
REPORTED: > 9.22 µM (inactive)

SMILES: CN(Cc1ccco1)c1ncnc2ccc(-c3ccccc3C#N)cc12
TEST_SYSTEM: Glucocorticoid receptor (Homo sapiens) (UniProt P04150)
REPORTED: > 46 µM (inactive)

SMILES: Cc1cnc(CNc2ncncc2-c2ccccc2C)cn1
TEST_SYSTEM: Glucocorticoid receptor (Homo sapiens) (UniProt P04150)
REPORTED: > 46 µM (inactive)

SMILES: N#CCCn1c(=O)c(-c2cc(F)cc(F)c2)nc2cnc(N3CCOCC3)nc21
TEST_SYSTEM: Glucocorticoid receptor (Homo sapiens) (UniProt P04150)
REPORTED: > 9.22 µM (inactive)

Using the record for Cc1noc(C)c1-c1ccc2ncnc(NCCN3CCOCC3)c2c1 , report its Potency. > 46 µM (inactive)

What measured Potency goes with CN(C)c1ncc2nc(-c3cccs3)c(=O)n(-c3ccccc3)c2n1 ? > 9.22 µM (inactive)
